system: Human immunodeficiency virus 2; test: Antiviral activity against HIV2 ROD with protease V47A mutation infected in human CEM cells assessed as inhibition of virus production after 7 days by Lenti-RT activity assay; format: functional, organism-based; details: Human immunodeficiency virus 2, ROD, CCRF-CEM, 168 h
pEC50: −log10 of the molar value.
Returns one of criterion met or criterion not met; criterion met when pEC50 is >= 7.

INSERT INTO results (molecule, classification) VALUES
  ('Cc1cccc(C)c1OCC(=O)N[C@@H](Cc1ccccc1)[C@@H](O)C[C@H](Cc1ccccc1)NC(=O)[C@H](C(C)C)N1CCCNC1=O [LOPINAVIR]', 'criterion not met'),
  ('COC(=O)N[C@H](C(=O)N[C@@H](Cc1ccccc1)[C@@H](O)CN(Cc1ccc(-c2ccccn2)cc1)NC(=O)[C@@H](NC(=O)OC)C(C)(C)C)C(C)(C)C [ATAZANAVIR]', 'criterion met'),
  ('CC(C)CN(C[C@@H](O)[C@H](Cc1ccccc1)NC(=O)O[C@H]1CCOC1)S(=O)(=O)c1ccc(N)cc1 [AMPRENAVIR]', 'criterion not met'),
  ('CC(C)(C)NC(=O)[C@@H]1CN(Cc2cccnc2)CCN1C[C@@H](O)C[C@@H](Cc1ccccc1)C(=O)N[C@H]1c2ccccc2C[C@H]1O.O [INDINAVIR]', 'criterion met');

----------
system: Human immunodeficiency virus 2; assay: Antiviral activity against HIV2 MS infected in human MT4 cells […] after 1 passage; assay type: functional, organism-based; conditions: Human immunodeficiency virus 2, MT4
pEC50: −log10 of the molar value.
measured metric: pEC50

INSERT INTO assay_data (smiles_input, measurement_target, measured_metric, numeric_result) VALUES
  ('Cc1cccc(C)c1OCC(=O)N[C@@H](Cc1ccccc1)[C@@H](O)C[C@H](Cc1ccccc1)NC(=O)[C@H](C(C)C)N1CCCNC1=O', 'Human immunodeficiency virus 2', 'pEC50', 7.82);

----------
tested on: Human immunodeficiency virus 2; test: Ratio of EC50 for HIV2 ROD with protease G17N mutation to EC50 for wild type HIV2 ROD; format: functional
Recorded Ratio EC50 by entry
measured metric: Ratio EC50

INSERT INTO measurements (compound, measured_metric, numeric_result) VALUES
  ('CC(C)CN(C[C@@H](O)[C@H](Cc1ccccc1)NC(=O)O[C@H]1CCOC1)S(=O)(=O)c1ccc(N)cc1 [AMPRENAVIR]', 'Ratio EC50', 0.7),
  ('CC(C)(C)NC(=O)[C@@H]1C[C@@H]2CCCC[C@@H]2CN1C[C@@H](O)[C@H](Cc1ccccc1)NC(=O)[C@H](CC(N)=O)NC(=O)c1ccc2ccccc2n1 [SAQUINAVIR]', 'Ratio EC50', 0.6),
  ('COC(=O)N[C@H](C(=O)N[C@@H](Cc1ccccc1)[C@@H](O)CN(Cc1ccc(-c2ccccn2)cc1)NC(=O)[C@@H](NC(=O)OC)C(C)(C)C)C(C)(C)C [ATAZANAVIR]', 'Ratio EC50', 0.6),
  ('Cc1cccc(C)c1OCC(=O)N[C@@H](Cc1ccccc1)[C@@H](O)C[C@H](Cc1ccccc1)NC(=O)[C@H](C(C)C)N1CCCNC1=O [LOPINAVIR]', 'Ratio EC50', 0.8),
  ('CC(C)c1nc(CN(C)C(=O)N[C@H](C(=O)N[C@@H](Cc2ccccc2)C[C@H](O)[C@H](Cc2ccccc2)NC(=O)OCc2cncs2)C(C)C)cs1 [RITONAVIR]', 'Ratio EC50', 0.7),
  ('CC(C)CN(C[C@@H](O)[C@H](Cc1ccccc1)NC(=O)O[C@H]1CO[C@H]2OCC[C@H]21)S(=O)(=O)c1ccc(N)cc1 [DARUNAVIR]', 'Ratio EC50', 0.7),
  ('CC(C)(C)NC(=O)[C@@H]1CN(Cc2cccnc2)CCN1C[C@@H](O)C[C@@H](Cc1ccccc1)C(=O)N[C@H]1c2ccccc2C[C@H]1O.O [INDINAVIR]', 'Ratio EC50', 0.8),
  ('Cc1c(O)cccc1C(=O)N[C@@H](CSc1ccccc1)[C@H](O)CN1C[C@H]2CCCC[C@H]2C[C@H]1C(=O)NC(C)(C)C [NELFINAVIR]', 'Ratio EC50', 0.7);
